Biological target: T1, cynomolgus monkey IL-33 expressed with a C-terminal hexahistidine tag (cynomolgus monkey)
T1 construct: also called MfIL-33-6His; Mf-IL-33-6His
T1 chain: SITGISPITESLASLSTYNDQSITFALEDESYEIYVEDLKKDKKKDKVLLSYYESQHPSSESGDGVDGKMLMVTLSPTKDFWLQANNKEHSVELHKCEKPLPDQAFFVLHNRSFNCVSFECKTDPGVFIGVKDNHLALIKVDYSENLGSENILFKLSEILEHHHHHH
Experiment: competition ELISA, 150 pM MfIL-33-6His on coated hST2-hFc
pIC50: −log10 of the molar value.
# pIC50 listing for each entry below

binder	pIC50
H1M9566N (antibody, mouse IgG1, V domains shown, Human variable domains, mouse IgG1 Fc (H1M)) VH: EVQLLESGGDLVQPGGSLRLSCAASGFTFSSYAMSWVRQAPGKGLEWVSVISGSGSSTDYADSVKGRFTISRDNSRDTLHLQMNSLRAEDTAVYYCAKTFYYFYGLDVWGQGTTVTVSS VL: DIQMTQSPSSLSASLRDRVTITCRASQGISNYLAWYQQKPGKVPKVLIYAASTLQSGVPSRFSGSGSGTVFTLTISSLQTEDVATYYCQKYSSAPFTFGPGTKVDIK	9.66
H4H9667P (antibody, human IgG4, V domains shown, Human IgG4 Fc (H4H)) VH: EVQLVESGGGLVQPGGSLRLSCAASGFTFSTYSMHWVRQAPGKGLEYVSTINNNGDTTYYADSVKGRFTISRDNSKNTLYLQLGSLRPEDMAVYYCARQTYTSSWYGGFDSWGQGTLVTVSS VL: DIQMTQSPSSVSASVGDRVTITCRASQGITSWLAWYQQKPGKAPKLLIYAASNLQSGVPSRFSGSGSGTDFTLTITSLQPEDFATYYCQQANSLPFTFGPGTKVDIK	8.39
H4H9663P (antibody, human IgG4, V domains shown, Human IgG4 Fc (H4H)) VH: QVQLVQSGAEVKKPGASVKVSCKASGYTFTGHYMYWMRQAPGQGLEWMGWINPNSGGTNYAQKFQDRVTMTRDTSISTAYMELSRLRSDDTAVYYCARGRYGSSWYGGFEYWGQGTLVTVSS VL: DIQMTQSPSSVSASVGDRVTITCRASQGITSWLAWYQQKPGKAPNLLIYAAASLQSGVPSRFSGSGSGTDFTLTISSLQPEDFTTYYCQQAYSLPLTFGGGTKVEIK	8.92
H4H9675P (antibody, human IgG4, V domains shown, Human IgG4 Fc (H4H)) VH: EVQLVESGGNLEQPGGSLRLSCTASGFTFSRSAMNWVRRAPGKGLEWVSGISGSGGRTYYADSVKGRFTISRDNSKNTLYLQMNSLSAEDTAAYYCAKDSYTTSWYGGMDVWGHGTTVTVSS VL: DIQMTQSPSSVSASVGDRVTITCRASQGIFSWLAWYQQKPGKAPKLLIYAASSLQSGVPSRFSGSGSGTDFTLTISSLQPEDFAIYYCQQANSVPITFGQGTRLEIK	8.82

All values here come from patent US20160362487A1.
